So I've got a bunch of compounds here, and I need their %Inh values.
Test system: FLT3;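 note: KINOMEscan kinase panel screen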
settings: concentration: 1 μM, replicates: in singlicate; n = 1

Ask | // fetch %Inh given entry `C[C@@H]1CCN(C(=O)CO)C[C@@H]1N(C)c1ncnc2[nH]ccc12`
Reply | 0%

Ask | // fetch %Inh given entry FC(F)(F)c1ccc(-c2cc(-c3c[nH]nc3-c3ccccn3)ccn2)cc1 [GW599550]
Reply | 0%

Ask | // fetch %Inh given entry `Fc1cccc(COc2ccc(Nc3ncnc4cc[nH]c34)cc2Cl)c1`
Reply | 0%

Ask | // fetch %Inh given entry CS(=O)(=O)CCNCc1ccc(-c2ccc3ncnc(Nc4ccc(OCc5ccccc5)c(Cl)c4)c3c2)o1.Cl [GW574783]
Reply | 11%

Ask | // fetch %Inh given entry Cc1cccc(-c2nc(Nc3ccc4[nH]nnc4c3)c3ccccc3n2)n1 [GW867587]
Reply | 0%
